Recorded values, source PubChem BioAssay (NCI).

Entries and their GI50 values follow.
- System: NCI-H23 lung
- Procedure text: NCI tumour cell line growth inhibition, 48 h
Value kind: GI50

# Molecule, Value kind, Observed result
measured = [
    ("CSC1C(=O)c2ccccc2/C(=N/Nc2nc3ccccc3s2)C1C (stereo unspecified)", "GI50", "11.2 µM"),
    ("O=C(CCCCCCC(=O)Nc1ccc2c(c1)/C(=C/c1ccc[nH]1)C(=O)N2)NO", "GI50", "1.88 µM"),
    ("O=C(N/N=C\\c1ccc(N(CCCl)CCCl)cc1Cl)c1cccnc1", "GI50", "9.59 µM"),
    ("Oc1ccc(N=Nc2ccc(N=Nc3ccccc3)cc2)cc1", "GI50", "4.1 µM"),
    ("OC(CNC1CCCC1)Cn1c2ccccc2c2ccccc21 (stereo unspecified)", "GI50", "28.4 µM"),
    ("NCCCCN(Cc1nc2ccccc2[nH]1)[C@H]1CCCc2cccnc21", "GI50", "20.4 µM"),
    ("CCCCCCCCCCCC[n+]1ccc(C(N)=O)cc1", "GI50", "2.81 µM"),
    ("COc1ccc2nc(C)cc(Nc3ccccc3O)c2c1", "GI50", "38.5 µM"),
    ("C[CH2][Sn]([CH2]C)([O]C(=O)c1cccc(F)c1)[O][Sn]([CH2]C)([CH2]C)[O]C(=O)c1cccc(F)c1", "GI50", "16.6 µM"),
    ("N#Cc1nc2cc(F)c(F)cc2nc1-c1ccc(Cl)cc1", "GI50", "7.92 µM"),
    ("COCCNC(=O)c1ccc(-c2nc3ccc4[nH]ncc4c3c3c2CCCC3)cc1", "GI50", "2.41 µM"),
]

###

Entries and their TGI values follow.
- Test system: OVCAR-3 ovarian
- Procedure text: NCI tumour cell line growth inhibition, 48 h
Value kind: TGI

# Compound, Observed result
rows = [
    ("C[CH2][Sn]([CH2]C)([O]C(=O)c1cccc(F)c1)[O][Sn]([CH2]C)([CH2]C)[O]C(=O)c1cccc(F)c1", "> 100 µM"),
    ("CC1=NN(C(=O)c2ccccc2O)C(c2ccccc2Cl)C1C(=O)Nc1ccccc1 (centres undefined)", "> 51.3 µM"),
    ("O=C(N/C(=C\\c1ccc(Oc2ccc(Cl)c(Cl)c2)cc1)c1nc2ccccc2[nH]1)c1ccccc1", "41 µM"),
    ("C/C(=C\\CC[C@]1(C)OC(C)(C)OC1CC/C(C)=C/CO[Si](c1ccccc1)(c1ccccc1)C(C)(C)C)CC/C=C/CO[Si](C)(C)C(C)(C)C (some centres undefined)", "> 100 µM"),
]

###

- Test system: HCC-2998 colon
- Procedure text: NCI tumour cell line growth inhibition, 48 h
Where a SMILES comes first, the peptide text is derived from it. The star is where a group is joined. Cbz = O=C(OCc1ccccc1)*
Entries and their TGI values follow.
Value kind: TGI

# Compound, Observed result
measured = [
    ("CN(C)c1ccc(N=Nc2cccc3ncccc23)cc1", "> 100 µM"),
    ("CCOC(=O)C(CC(=O)OC)NC(=O)C(CC(=O)OC)NC(=O)C(CC(=O)OC)NC(=O)C(CC(=O)OC)NC(=O)OCc1ccccc1 (stereo not given) (Cbz-D(OMe)D(OMe)D(OMe)D(OMe)-OEt; configuration not given here)", "> 100 µM"),
    ("Oc1c(N=Nc2ccccc2)c2ccccc2c2ccc3ccccc3c12", "> 100 µM"),
    ("COc1ccc2c(c1)N=C1CSC(c3c(Cl)cccc3[N+](=O)[O-])N1C2 (stereo not given)", "47.7 µM"),
    ("NS(=O)(=O)c1nnc(/N=C(/CCC(=O)O)C(=O)O)s1", "> 100 µM"),
]
